molecular target: CCAAT/enhancer-binding protein beta (Homo sapiens); assay: ATG_C_EBP_CIS: Attagene CIS-FACTORIAL HepG2 Assay for human CCAAT/Enhancer Binding Protein (C/EBP) beta (AID 2282927); settings: HepG2 Attagene cis-factorial transcription factor reporter; actives raise or lower the signal
Activity calls are given as the source filed them. How the source made its calls: active means hit-call score of the fitted dose curve at least 0.9, where 1 is the maximum; inactive means score below 0.9.
Permitted responses: active, inactive

Challenge: GET /call?item= `c1ccc2c(c1)Nc1ccccc1S2` returns the recorded outcome of this test.
Response given: inactive

Challenge: And for `CO/N=C(/C(=O)OC)c1ccccc1COc1ccccc1C` ?
Response given: inactive

Challenge: And for `O=S(=O)(c1ccc(O)cc1)c1ccc(O)cc1` ?
Response given: inactive

Challenge: And for `COP(=O)(O)OC` ?
Response given: inactive

Challenge: And for `O=c1ssc(Cl)c1Cl` ?
Response given: active

Challenge: And for `O=C(O)C(F)(F)OC(F)(F)C(F)(F)OC(F)(F)F` ?
Response given: inactive

Challenge: And for ClC1=C(Cl)C2(Cl)C3C(Cl)C(Cl)CC3C1(Cl)C2(Cl)Cl (stereo not drawn) ?
Response given: inactive

Challenge: And for CC(Cl)CN(C)C (stereo not drawn) ?
Response given: inactive
